Measured pIC50 values are reported for all entries that follow.
- Tested on: contractions of isolated rabbit aorta rings induced by angiotensin II (AII)
- test_details: Inhibition of the vascular contraction induced by angiotensin II in isolated rabbit aorta rings in vitro
- Format: cell-based
- condition_label: Oryctolagus cuniculus, based on the 3rd = submaximal agonist concentration, read-out: IC50 against contractions induced by AII
pIC50: −log10 of the molar value.
measurement_label: pIC50

>>> df
                                   molecule                       experimental_target  result_number
0  CCCCc1nc(Cl)c(CO)n1Cc1ccc([C@@H]2CCCC[C@H]2C(=O)NS(=O)(=O)c2ccc(C)cc2)cc1 (relative stereo)  contractions of isolated rabbit aorta rings induced by angiotensin II (AII)           6.04
1  CCCCc1nc(Cl)c(C(=O)O)n1Cc1ccc([C@@H]2CCCC[C@H]2C(=O)NS(=O)(=O)c2ccc(C)cc2)cc1 (relative stereo)  contractions of isolated rabbit aorta rings induced by angiotensin II (AII)           6.62
2  CCCCc1nc(Cl)c(C(=O)O)n1Cc1ccc([C@@H]2CCCC[C@H]2C(=O)O)cc1 (relative stereo)  contractions of isolated rabbit aorta rings induced by angiotensin II (AII)           5.85
